Listing: growth of selected molecules
System: NCI/ADR-RES ovarian
Assay: NCI-60 one-dose screen, 48 h (100 = growth as untreated, 0 = no growth, -100 = all killed)
Conditions: 10 µM unless noted
The panel holds about 83,000 compounds, 20% with a hit somewhere; the sample as a whole holds those more often. Active and inactive are the calls of the source. The calls were made as follows: active = growth percent below 10; inactive = the rest.
recorded_endpoint: growth

C=CCOc1ccc2c(C)cc(=O)oc2c1 = 104% (inactive)
Brc1ccsc1Br = 116% (inactive)
COc1ccc(CNc2c3ccccc3nc3ccccc23)cc1F = 20.8% (inactive)
Oc1c(C(Nc2cccc3ccccc23)c2ccccc2)ccc2cccnc12 (configuration not stated) = 4.58% (active)
CCCC(CCC)(C(N)=O)C(=O)O = 107% (inactive)
COc1cc(/C=C/c2cc(/C=C/c3ccc(O)c(OC)c3)n(C(=O)c3ccccc3Br)n2)ccc1O = 28.1% (inactive)
CCCCCc1c(C)[nH]c(/C=C2\N=C(c3ccc[nH]3)C=C2Oc2ccc(OC)cc2)c1C = -78% [100 µM] (active)
CC(=O)O[C@@H]1CC2C(C)(C)CCCC2(C)C2=C1C(=O)C(C(C)C)=CC2=O (some centres not stated) = 15.9% (inactive)
COc1ccccc1/C=C/C(=O)CCC(=O)O = 107% (inactive)
O=C(CCCN1CCC(O)(c2ccc(Br)cc2)CC1)c1ccc(F)cc1 = 74% (inactive)
O=C(/C=C/c1ccccc1)c1c[nH]c2ccccc2c1=O = 0.29% (active)
CNCCCn1c2c(c3ccc(Cl)cc3c1=O)C(=O)c1cc(OC)cnc1-2 = 46.5% (inactive)
COc1cc(C2CC(c3ccc(C)cc3)=NN2C=O)ccc1Oc1ccnc2cc(Cl)ccc12 (configuration not stated) = 65.8% (inactive)
COc1ccc(-c2nc(SCCC(C)C)nc(Nc3ccc(C(=O)O)cc3)c2C#N)cc1 = 102% (inactive)
COc1cnc2c(c1)C(=O)c1c-2n(CCCN2CCCC2)c(=O)c2cc(Cl)ccc12 = 35.1% (inactive)
CN(C)c1nc(-c2cccs2)n2nc(-c3ccco3)cc2n1 = 93.5% (inactive)
O=C(O/C(=C/c1ccccc1)C(F)(F)F)c1ccccc1 = 103% (inactive)
COc1ccc(C(=O)C(CN(C)C)c2ccc(OC)cc2)cc1 (configuration not stated) = 67.3% (inactive)
COc1ccc(/C(C)=N/NC(=O)CSc2nc3ccccc3c(=O)n2CCc2ccc(S(N)(=O)=O)cc2)cc1 = 79.4% (inactive)
Cc1ccsc1C(=O)CC(=O)C(F)(F)C(F)(F)C(F)(F)F = 107% (inactive)
COc1ccc(-c2cc(-c3ccc(OC)cc3)c3sc(=O)[nH]c3n2)cc1 = 92.2% (inactive)
C=CCN(CC#N)CC=C = 115% (inactive)
CC(C)(CCc1ccccn1)C(=O)CCCc1ccccn1 = 106% (inactive)
Cc1cc(C#Cc2ccc(C(C)(C)C)cc2)ccc1-n1c(/C=C/c2c(Cl)cccc2Cl)nc2ccccc2c1=O = 103% (inactive)
N/C(=N\OC(=O)c1ccccc1)C(C(=O)NOC(=O)c1ccccc1)C1CCCCC1 (configuration not stated) = 45.2% (inactive)
CC(=O)N1N=C(C2C(=O)N(C)C(=O)N(C)C2=O)CC1c1ccccc1C(=O)O (configuration not stated) = 105% (inactive)
C=CCCCCOc1cccc(/C=C2\N=C3SCCCN3C2=O)c1 = 95.6% (inactive)

---

Tested on: SF-539 CNS
Assay: NCI-60 one-dose screen, 48 h
Conditions: 10 µM unless noted
About 83,000 compounds went through this panel and 20% of them were active in at least one assay; those are over-represented in the sample as a whole. The source made the active and inactive calls. The calls were made as follows: active = growth percent below 10; inactive = the rest.
Possible outcomes: True (active), False (inactive)

CC(=O)c1ccc(Br)c([N+](=O)[O-])c1 = False
COc1cc(/C=C/c2cc(/C=C/c3ccc(O)c(OC)c3)n(C(=O)Nc3ccc(F)c(Cl)c3)n2)ccc1O = True
CN1C(=O)C(C2=NNC(c3ccccc3C(=O)O)C2)C(=O)N(C)C1=O (configuration not stated) = False
Cc1c(C(=O)Nc2ccccc2F)sc2c(=O)[nH]cnc12 = False
O=C(NO)c1ccc(CNc2cccc3nc(C4CC4)n(-c4ccccc4)c(=O)c23)cc1 = True
O=C(O)C(CCc1ccccc1)NCc1ccccc1 (configuration not stated) = False
Cc1ccc(Nc2cc(Cl)c([N+](=O)[O-])cc2[N+](=O)[O-])cc1 = False
COc1ccc2nc(C)cc(Sc3nc4ccccc4s3)c2c1 = False
COc1ccc(CC2c3cc(OC)c(OC)cc3CC[N+]2(C)CCC(=O)OCCCCCOC(=O)CC[N+]2(C)CCc3cc(OC)c(OC)cc3C2Cc2ccc(OC)c(OC)c2)cc1OC (configuration not stated) = False
NS(=O)(=O)c1ccc(CCn2c(SCC(=O)N/N=C/c3ccccc3O)nc3ccccc3c2=O)cc1 = False
COc1cccc(N2CCN(c3ncnc4cc[nH]c34)CC2)c1 = False
N=c1nc(N2CCCCC2)cc(N)n1O = False
COc1ccc2[nH]cc(C3(c4c[nH]c5ccc(OC)cc45)C(=O)Nc4ccc(Cl)cc43)c2c1 = False
CCCCCCCCN(CCCCCCCC)C(=O)CCl = False
CC(=O)Nc1c(Br)cc2c(c1Br)Cc1cc(Br)ccc1-2 = False
COc1ccc(C(=O)O)cc1.[Ag] = False
CC1CCN(CCCCCOc2ccc3oc4ccc(Cl)cc4c(=O)c3c2)CC1 = False
CN(C)c1nc(-c2cccs2)n2nc(-c3ccc(Cl)cc3)cc2n1 = False
CN1C(=O)NC(Cc2c[nH]c3c(Cl)cccc23)C1=O (configuration not stated) = False
Nc1nc(N)c2cc(NCc3ccc(Cl)c(Cl)c3)ccc2n1 = True
CCOC(=O)N1C2CCC(C2)N1C(=O)OCC = False
COc1cc([N+](=O)[O-])cc(OC)c1OC = False

---

Test system: RPMI-8226 leukemia
Assay: NCI-60 one-dose screen, 48 h (100 = growth as untreated, 0 = no growth, -100 = all killed)
Details: 10 µM unless noted
This is part of a sample that, as a whole, favours compounds with a hit. Of some 83,000 tested, about 20% had one in any assay.
recorded_endpoint: growth (%)

C[N+](C)(C)CC(=O)N/N=C\c1ccco1 = 103
COc1nccc2c(Sc3ccccc3)nc(N)nc12 = 93.2
CC1(C)CN(CCNc2nccc(-c3c(-c4cccc(O)c4)nc4sccn34)n2)S(=O)(=O)N1 = 96.1
COc1ccc(/C=C(\C#N)c2cc(OC)c(OC)c(OC)c2)cc1 = 12.3
COc1cc(/C=C/c2cc(/C=C/c3ccc(O)c(OC)c3)n(C(=O)Nc3ccc(F)c(Cl)c3)n2)ccc1O = -11.3
O=C(N/N=C/c1ccccc1O)c1ccncc1 = 53.9
COC(=O)C(Br)(C(=O)OC)C(Br)C(Br)C(Br)c1ccccc1 (configuration not stated) = 106
N=c1nc(N2CCCCC2)cc(N)n1O = 109
O=C1/C=C/[C@@H](O)[C@@H]2C[C@@H](O)C[C@H]2/C=C/CCC[C@H]([C@@H](O)CO)O1 = 112
O=C(c1ccccc1)c1cccc(C(Br)Br)c1 = 84.4
OC(COCc1ccccc1)COCc1ccccc1 = 109
CCOC(OCC)c1cnc2nc(NC(C)=O)[nH]c(=O)c2n1 = 106

---

Listing: growth of selected molecules
Tested on: MCF7 breast
Assay: NCI-60 one-dose screen, 48 h (100 = growth as untreated, 0 = no growth, -100 = all killed)
Conditions: 10 µM unless noted
About 83,000 compounds went through this panel and 20% of them were active in at least one assay; those are over-represented in the sample as a whole.
recorded_endpoint: growth (%)

CC(=O)Nc1ccc(/C=N/N2CCCCCC2)cc1 = 92.2
CCN(C(=O)CCl)C(C)(C)C(SSSC(c1ccc(Cl)cc1)C(C)(C)N(CC)C(=O)CCl)c1ccc(Cl)cc1 (configuration not stated) = 57.1
S=C(Cc1ccccc1)N1CCN(c2ccccc2Cl)CC1 = 110
Cc1ccc(C)c2c1SC1=NNC(Oc3ccc(Cl)cc3)=C(C#N)C(=N)N12 = 89.5
O=C1CCCN1C1CCN2CCCc3cccc1c32 (configuration not stated) = 96.9
O=[N+]([O-])c1ccc(N/N=C\c2ccc(O)cc2O)nc1 = 27.4
O=C(Nc1cccc(-n2ccc3c(NC(=O)c4ccccc4)nccc32)c1)c1ccc(N2CCOCC2)c(C(F)(F)F)c1 = 14
COc1ccccc1CNCCCN1C(=O)c2ccc3c4c(ccc(c24)C1=O)C(=O)N(CCCOCCCCOCCCN)C3=O = -69.6
O=S(=O)(Cc1ccc(Cl)cc1Cl)c1ccc(Cl)cc1 = 22.1
COc1cc(-c2nn(C(=O)NCCN3CCN(C)CC3)cc2-c2ccncc2)ccc1Cl = 76.5
NC(=O)c1ccc[n+](Cc2ccccc2)c1 = 103
Oc1c(C(Nc2cccc3ccccc23)c2ccccc2)ccc2cccnc12 (configuration not stated) = 25.8
C#CCO[C@H]1CC[C@H](OCC#C)[C@@H]2[C@H]1[C@H]1C[C@@H]3[C@@]4(C)CCC[C@@](C)(C(=O)OC)[C@@H]4CC[C@@]23C=C1C(C)C = 90.5
CCN(CC)c1ccc(/C=N/NC(=O)C[N+](C)(C)C)cc1 = 96.9
COc1cc(NCCC2CCCCN2)c2ncccc2c1OC (configuration not stated) = 57.3
Nc1c(C(=O)Nc2ccccc2)sc2nc3c(cc12)C(=O)CCC3 = 19.6
COc1cnc2c(c1)C(=O)c1c-2n(CCCN2CCN(C)CC2)c(=O)c2cc(Cl)ccc12 = 20.8
Nc1cc(C(=O)O)cc(C(=O)O)c1 = 99.8
CCN(CC)CCNC(=O)n1cc(-c2ccncc2)c(-c2ccc(Cl)c(OC)c2)n1 = 85.9
COc1cc(OC)c(Cl)cc1N = 95.5
Fc1cc(-c2cnc3nonc3n2)c(Cl)cc1Cl = 69.7
CC1=C(/C=C/C(C)=C/C=C(C(=O)O)\C(C)=C\C(=O)O)C(C)(C)CCC1 = 93.8
